The entries below are paired with their reported kon.
Molecular target: T1, RSV F glycoprotein (NUF4) (respiratory syncytial virus)
T1 chain 1: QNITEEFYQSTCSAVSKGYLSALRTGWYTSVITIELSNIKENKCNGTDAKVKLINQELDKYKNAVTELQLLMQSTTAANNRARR
T1 chain 2: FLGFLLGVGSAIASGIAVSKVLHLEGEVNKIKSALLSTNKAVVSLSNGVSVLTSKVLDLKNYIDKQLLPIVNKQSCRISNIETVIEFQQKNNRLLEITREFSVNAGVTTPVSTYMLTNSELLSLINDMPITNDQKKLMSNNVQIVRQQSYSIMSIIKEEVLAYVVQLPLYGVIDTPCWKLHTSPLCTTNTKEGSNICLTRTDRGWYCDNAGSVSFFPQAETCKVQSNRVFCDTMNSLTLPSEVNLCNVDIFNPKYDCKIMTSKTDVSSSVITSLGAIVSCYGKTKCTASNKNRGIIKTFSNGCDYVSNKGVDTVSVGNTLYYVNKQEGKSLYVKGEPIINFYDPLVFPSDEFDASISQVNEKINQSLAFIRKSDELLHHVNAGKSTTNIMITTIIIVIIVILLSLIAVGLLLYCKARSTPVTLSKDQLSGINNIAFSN
Assay: BIAcore, mAb vs NUF4 (2:1)
measured.metric: kon (M⁻¹ s⁻¹)

binder="A13c4 (monoclonal antibody) (antibody, V domains shown, mAb with framework and constant regions of SYNAGIS) VH: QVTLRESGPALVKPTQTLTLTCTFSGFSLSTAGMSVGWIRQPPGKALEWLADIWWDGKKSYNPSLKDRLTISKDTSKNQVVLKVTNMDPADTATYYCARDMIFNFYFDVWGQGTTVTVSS VL: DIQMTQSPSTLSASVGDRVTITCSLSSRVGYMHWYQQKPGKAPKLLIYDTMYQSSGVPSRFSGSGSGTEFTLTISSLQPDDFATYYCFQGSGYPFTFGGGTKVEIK" value_observed=320000
binder="A8c7 (monoclonal antibody) (antibody, V domains shown, mAb with framework and constant regions of SYNAGIS) VH: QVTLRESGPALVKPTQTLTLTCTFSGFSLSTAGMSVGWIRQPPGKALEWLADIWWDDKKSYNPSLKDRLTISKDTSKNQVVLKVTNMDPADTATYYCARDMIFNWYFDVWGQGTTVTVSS VL: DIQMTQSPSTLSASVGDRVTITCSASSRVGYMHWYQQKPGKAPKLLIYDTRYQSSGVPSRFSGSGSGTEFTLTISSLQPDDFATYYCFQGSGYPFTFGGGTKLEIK" value_observed=430000
binder="A12a6 (monoclonal antibody) (antibody, V domains shown, mAb with framework and constant regions of SYNAGIS) VH: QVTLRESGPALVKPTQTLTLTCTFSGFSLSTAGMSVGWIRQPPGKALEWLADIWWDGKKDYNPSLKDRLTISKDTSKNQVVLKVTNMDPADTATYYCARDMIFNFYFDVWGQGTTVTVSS VL: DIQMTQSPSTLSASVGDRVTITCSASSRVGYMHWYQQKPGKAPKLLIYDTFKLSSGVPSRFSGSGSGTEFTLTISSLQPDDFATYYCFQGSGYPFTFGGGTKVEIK" value_observed=218000
binder="A17d4 (monoclonal antibody) (antibody, V domains shown, mAb with framework and constant regions of SYNAGIS) VH: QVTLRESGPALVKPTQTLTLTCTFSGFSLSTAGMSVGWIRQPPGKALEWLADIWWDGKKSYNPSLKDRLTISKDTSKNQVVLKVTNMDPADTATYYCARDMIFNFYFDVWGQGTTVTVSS VL: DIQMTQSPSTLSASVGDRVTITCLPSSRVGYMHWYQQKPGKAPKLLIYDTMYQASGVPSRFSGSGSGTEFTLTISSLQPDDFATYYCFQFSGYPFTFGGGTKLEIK" value_observed=264000

These measurements were taken from patent US20030091584A1.
